- Protocol description: Antagonist activity at calcium channel in rat A7R5 cells assessed as inhibition of Cacl2/KCl-induced increase in intracellular Ca2+ incubated for 15 mins prior to Cacl2/KCl challenge by fluorescence assay
- Format: cell-based
- Reported conditions: Rattus norvegicus, A7R5; read-out: IC50
Reported property: IC50

Look over these answered cases.
Cpd smiles | IC50
CCOC(=O)c1c(C)nc2sc(C(=O)c3ccc(OC)cc3)c(N)c2c1-c1ccc(OCC)cc1 | > 100 µM
CCCOCCOC(=O)c1c(C)nc2sc(C(=O)c3ccc(OC)cc3)c(N)c2c1-c1cc(OC)c(OC)c(OC)c1 | > 100 µM

Please find the next compound below.
For the compound O=C(NCCCN1CCOCC1)c1cnn2c(-c3ccccc3)cc(-c3ccccc3)nc12 , give its reported IC50. > 100 µM
